# Test system: MCF-10A
# PROTOCOL NOTES: normalised response (% of control), CellTox Green; higher = less cell death (100 = DMSO, 0 = benzethonium chloride kill control)
# CONDITION SUMMARY: incubation time: 72 h
VALUE KIND: normalised response (%)

COMPOUND: O=C(O)C1(C(=O)O)CCC1.[NH2-].[NH2-].[Pt+2] [Carboplatin] (10000 nM)
MEASURED ON: MCF-10A
VALUE KIND: normalised response
MEASURED VALUE: 117
//
COMPOUND: O=C(O)CCCCC(CCSCc1ccccc1)SCc1ccccc1 (configuration not stated) [CPI-613] (100 nM)
MEASURED ON: MCF-10A
VALUE KIND: normalised response
MEASURED VALUE: 104
//
COMPOUND: CC[C@H](Nc1ncnc2[nH]cnc12)c1nc2cccc(F)c2c(=O)n1-c1ccccc1 [GS-1101] (1000 nM)
MEASURED ON: MCF-10A
VALUE KIND: normalised response
MEASURED VALUE: 112
//
COMPOUND: O=C(O)CCCCC(CCSCc1ccccc1)SCc1ccccc1 (configuration not stated) [CPI-613] (1000 nM)
MEASURED ON: MCF-10A
VALUE KIND: normalised response
MEASURED VALUE: 92.8
//
COMPOUND: C[C@H]1C[C@@H]2[C@H]([C@@H](O)C[C@@]3(C)[C@H]2CC[C@]3(O)C(=O)CO)[C@@]2(C)C=CC(=O)C=C12 [Methylprednisolone] (10000 nM)
MEASURED ON: MCF-10A
VALUE KIND: normalised response
MEASURED VALUE: 99.1
//
COMPOUND: CCN(CC)CCCC(C)Nc1c2ccc(Cl)cc2nc2ccc(OC)cc12 (configuration not stated) [Mepacrine] (5000 nM)
MEASURED ON: MCF-10A
VALUE KIND: normalised response
MEASURED VALUE: 99.3
//
COMPOUND: C[C@H]1C[C@@H]2[C@H]([C@@H](O)C[C@@]3(C)[C@H]2CC[C@]3(O)C(=O)CO)[C@@]2(C)C=CC(=O)C=C12 [Methylprednisolone] (100 nM)
MEASURED ON: MCF-10A
VALUE KIND: normalised response
MEASURED VALUE: 101
